- experimentalTarget: human neutrophil elastase (HNE) (Homo sapiens, UniProt P08246)
- Sequence (P08246 30-267): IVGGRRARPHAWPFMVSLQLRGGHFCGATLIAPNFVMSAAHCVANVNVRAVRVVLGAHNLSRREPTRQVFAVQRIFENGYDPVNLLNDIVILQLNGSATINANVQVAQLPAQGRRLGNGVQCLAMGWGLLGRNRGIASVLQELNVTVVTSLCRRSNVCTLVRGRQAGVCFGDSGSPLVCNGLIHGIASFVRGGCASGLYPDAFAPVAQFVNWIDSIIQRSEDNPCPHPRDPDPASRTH
- experimentSummary: HNE inhibition assay
# note: boundary value 30 nM maps to n; IC50 below it maps to y

Reference set (8 entries):
INSERT INTO assay_data (molecule, experimentaltarget, classname) VALUES
  ('Cc1cccc(C(=O)n2cc(-c3ccc(Cl)cc3)c(=O)o2)c1 [Compound 4f]', 'human neutrophil elastase (HNE) (Homo sapiens, UniProt P08246)', 'y'),
  ('Cc1cccc(C(=O)n2cc(-c3ccc(C(F)(F)F)cc3)c(=O)o2)c1 [Compound 4i]', 'human neutrophil elastase (HNE) (Homo sapiens, UniProt P08246)', 'n'),
  ('Cc1cccc(-c2cn(C(=O)C3CC3)oc2=O)c1 [Compound 3c]', 'human neutrophil elastase (HNE) (Homo sapiens, UniProt P08246)', 'y'),
  ('O=C(C1CC1)n1cc(-c2ccccc2)c(=O)o1 [Compound 3a]', 'human neutrophil elastase (HNE) (Homo sapiens, UniProt P08246)', 'y'),
  ('O=C(C1CC1)n1cc(-c2ccc(Cl)cc2)c(=O)o1 [Compound 3f]', 'human neutrophil elastase (HNE) (Homo sapiens, UniProt P08246)', 'n'),
  ('Cc1cccc(C(=O)n2cc(-c3cccc(C)c3)c(=O)o2)c1 [Compound 4c]', 'human neutrophil elastase (HNE) (Homo sapiens, UniProt P08246)', 'n'),
  ('Cc1ccccc1-c1cn(C(=O)C2CC2)oc1=O [Compound 3d]', 'human neutrophil elastase (HNE) (Homo sapiens, UniProt P08246)', 'n'),
  ('O=C(C1CC1)n1cc(-c2ccc(Br)cc2)c(=O)o1 [Compound 3e]', 'human neutrophil elastase (HNE) (Homo sapiens, UniProt P08246)', 'n');

Input line: API: query returns whether the molecule falls strictly under 30 nM in IC50. Query: Cc1cccc(C(=O)n2cc(-c3ccc(Br)cc3)c(=O)o2)c1 [Compound 4e]
Output line: n

Input line: Record COc1ccc(-c2cn(C(=O)c3cccc(C)c3)oc2=O)cc1 [Compound 4g] : is its IC50 strictly below 30 nM?
Output line: y

Input line: # TODO verify IC50 < 30 nM strictly for this molecule: O=C(C1CC1)n1cc(-c2ccc(C(F)(F)F)cc2)c(=O)o1 [Compound 3i]
Output line: n

Input line: Decide: IC50 of COc1ccc(-c2cn(C(=O)C3CC3)oc2=O)cc1 [Compound 3g] strictly below 30 nM?
Output line: y

Input line: Find out if reported IC50 for Cc1cccc(C(=O)n2cc(-c3ccc(C#N)cc3)c(=O)o2)c1 [Compound 4h] is less than 30 nM
Output line: n

Input line: # TODO verify IC50 < 30 nM strictly for this molecule: Cc1ccc(-c2cn(C(=O)C3CC3)oc2=O)cc1 [Compound 3b]
Output line: y

Input line: Below 30 nM on IC50? Entry Cc1ccc(-c2cn(C(=O)c3cccc(C)c3)oc2=O)cc1 [Compound 4b]
Output line: y

Input line: Bench note: check whether N#Cc1ccc(-c2cn(C(=O)C3CC3)oc2=O)cc1 [Compound 3h] shows IC50 below 30 nM
Output line: y

Input line: Hello, I'm reviewing records and need to know if IC50 of Cc1cccc(C(=O)n2cc(-c3ccccc3C)c(=O)o2)c1 [Compound 4d] is below 30 nM. Could you check?
Output line: y

Input line: I'd appreciate it if you could check whether Cc1cccc(C(=O)n2cc(-c3ccccc3)c(=O)o2)c1 [Compound 4a] has IC50 smaller than 30 nM.
Output line: n
